Would you mind telling me the reported remaining activity at 10 µM of each entry?
molecular target: PKCθ (Homo sapiens, UniProt Q04759); construct: purchased Eurofins Pharma Discovery Services (KinaseProfiler; Cerep BioPrint panel); test: kinase selectivity panel; type: biochemical; conditions: read-out: percentage of control activity (POC), PKCθ
Sequence (Q04759 whole entry): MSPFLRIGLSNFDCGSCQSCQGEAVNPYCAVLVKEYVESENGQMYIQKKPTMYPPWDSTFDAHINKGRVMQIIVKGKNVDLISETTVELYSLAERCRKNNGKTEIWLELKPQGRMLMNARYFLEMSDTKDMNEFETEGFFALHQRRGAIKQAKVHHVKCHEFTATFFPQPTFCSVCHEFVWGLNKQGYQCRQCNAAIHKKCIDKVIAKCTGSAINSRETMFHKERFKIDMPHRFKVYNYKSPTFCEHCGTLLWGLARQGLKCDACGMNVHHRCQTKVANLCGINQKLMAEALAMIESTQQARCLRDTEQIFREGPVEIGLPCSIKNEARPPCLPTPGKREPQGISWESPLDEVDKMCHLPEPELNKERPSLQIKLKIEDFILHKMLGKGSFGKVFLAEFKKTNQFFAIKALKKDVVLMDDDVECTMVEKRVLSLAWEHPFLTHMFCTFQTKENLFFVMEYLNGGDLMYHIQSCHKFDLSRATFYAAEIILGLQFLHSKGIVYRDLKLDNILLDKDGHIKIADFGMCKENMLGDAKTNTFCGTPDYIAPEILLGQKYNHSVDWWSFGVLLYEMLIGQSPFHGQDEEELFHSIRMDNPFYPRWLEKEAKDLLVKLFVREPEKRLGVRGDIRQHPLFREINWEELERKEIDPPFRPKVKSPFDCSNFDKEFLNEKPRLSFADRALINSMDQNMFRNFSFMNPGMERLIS
Note: unit % is implicit; provide only the numeric part.

Input COc1c(NC(=O)c2ccc(C)c(-c3nnc4c(NCC(C)(C)C)nccn34)c2)cc(C(C)(C)C)cc1NS(C)(=O)=O [compound 7, reference compound] . Output remaining activity at 10 µM: 98

Input CC(C)(C)N1CCC(c2cc(-c3ccc(F)cc3Cl)c3cc[n+]([O-])c(-c4c(Cl)cccc4Cl)c3n2)CC1 . Output remaining activity at 10 µM: 91

Input Cc1ccc(C(=O)NCC2CC2)cc1-c1ccc2c(c1)NC(=O)C21CCCC1 . Output remaining activity at 10 µM: 97

Input Cn1cc(-c2cccc(-c3nc(C(=O)NC4C5CC6CC4CC(O)(C6)C5)c(N)nc3N)c2)cn1 (centres unmarked) . Output remaining activity at 10 µM: 84

Input CS(=O)(=O)N1CCN(c2ccc(Nc3ncc(C(N)=O)c(NC4CC4)n3)cc2)CC1 . Output remaining activity at 10 µM: 26

====

Would you mind telling me the reported remaining activity at 10 µM of each entry?
target: BTK (Homo sapiens, UniProt Q06187); construct: purchased Eurofins Pharma Discovery Services (KinaseProfiler; Cerep BioPrint panel); test: kinase selectivity panel; type: biochemical; details: read-out: percentage of control activity (POC), BTK
Sequence (Q06187 whole entry): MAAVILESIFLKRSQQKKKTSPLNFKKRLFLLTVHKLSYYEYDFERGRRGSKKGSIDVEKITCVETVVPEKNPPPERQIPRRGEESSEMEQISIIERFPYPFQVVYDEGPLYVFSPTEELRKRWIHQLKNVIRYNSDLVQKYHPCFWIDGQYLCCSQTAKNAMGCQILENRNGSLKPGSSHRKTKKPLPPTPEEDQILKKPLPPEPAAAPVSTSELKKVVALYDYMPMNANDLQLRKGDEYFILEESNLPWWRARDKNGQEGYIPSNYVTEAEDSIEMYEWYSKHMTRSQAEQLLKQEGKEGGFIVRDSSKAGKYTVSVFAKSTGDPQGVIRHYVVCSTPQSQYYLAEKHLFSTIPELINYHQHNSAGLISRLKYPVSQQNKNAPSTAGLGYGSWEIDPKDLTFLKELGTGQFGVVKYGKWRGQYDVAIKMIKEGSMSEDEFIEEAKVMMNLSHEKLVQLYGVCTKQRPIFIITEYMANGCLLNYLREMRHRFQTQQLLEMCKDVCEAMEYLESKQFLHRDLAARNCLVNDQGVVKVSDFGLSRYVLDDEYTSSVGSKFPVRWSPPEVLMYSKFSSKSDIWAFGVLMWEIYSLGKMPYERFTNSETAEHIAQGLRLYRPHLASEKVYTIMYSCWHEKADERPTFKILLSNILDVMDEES
Note: unit % is implicit; provide only the numeric part.

Input Cn1cc(-c2cccc(-c3nc(C(=O)NC4C5CC6CC4CC(O)(C6)C5)c(N)nc3N)c2)cn1 (centres unmarked) [compound 4] . Output remaining activity at 10 µM: 89

Input Cc1ccc(C(=O)NCC2CC2)cc1-c1ccc2c(c1)NC(=O)C21CCCC1 [compound 3] . Output remaining activity at 10 µM: 98

Input CC(C)(C)N1CCC(c2cc(-c3ccc(F)cc3Cl)c3cc[n+]([O-])c(-c4c(Cl)cccc4Cl)c3n2)CC1 [compound 2] . Output remaining activity at 10 µM: 114

Input CS(=O)(=O)N1CCN(c2ccc(Nc3ncc(C(N)=O)c(NC4CC4)n3)cc2)CC1 [compound 5] . Output remaining activity at 10 µM: 17

Input COc1c(NC(=O)c2ccc(C)c(-c3nnc4c(NCC(C)(C)C)nccn34)c2)cc(C(C)(C)C)cc1NS(C)(=O)=O [compound 7, reference compound] . Output remaining activity at 10 µM: 112

====

Would you mind telling me the reported IC50 of each entry?
system: TSLP production in NHBE cells; experiment: TSLP HTRF assay (TSLP production in poly I:C / IL-4 stimulated NHBE cells); assay type: cell-based, human; conditions: Homo sapiens, NHBE, 24 h, NHBE cells donor #1; poly I:C / IL-4, 24h; geometric mean; read-out: Inhibition of TSLP protein production (IC50, μM) (95% CI)
Note: unit µM is implicit; provide only the numeric part.

Input Nc1ncc(-c2cccc(-c3cccnc3)c2)nc1C(=O)NC1C2CC3CC1CC(O)(C3)C2 (stereo not drawn) [compound 11] . Output IC50: 1.14

Input Nc1ncc(-c2ccc3cn[nH]c3c2)nc1C(=O)NC1C2CC3CC1CC(O)(C3)C2 (stereo not drawn) [compound 14] . Output IC50: 0.359

Input C[C@@H]1O[C@@H](O[C@H]2C[C@@H](O)[C@]3(CO)[C@H]4[C@H](O)C[C@]5(C)[C@@H](C6=CC(=O)OC6)CC[C@]5(O)[C@@H]4CC[C@]3(O)C2)[C@H](O)[C@H](O)[C@H]1O [Ouabain, reference compound] . Output IC50: 0.016

Input Cc1ccc(C(=O)NCC2CC2)cc1-c1ccc2c(c1)NC(=O)C21CCCC1 [compound 3] . Output IC50: 0.172

Input COc1cc(-c2cnn(C)c2)cc(-c2cnc(N)c(C(=O)N[C@@H]3[C@@H]4C[C@@H]5C[C@H]3C[C@@](O)(C5)C4)n2)c1 [compound 10] . Output IC50: 0.277

Input CCn1cc(-c2cccc(-c3cnc(N)c(C(=O)NC4C5CC6CC4CC(O)(C6)C5)n3)c2)cn1 (stereo not drawn) [compound 9] . Output IC50: 0.302

Input Nc1ncc(-c2ccc3[nH]ncc3c2)nc1C(=O)NC1C2CC3CC1CC(O)(C3)C2 (stereo not drawn) [compound 13] . Output IC50: 0.19

Input COC(=O)Nc1nc2ccc(C(=O)c3cccs3)cc2[nH]1 [Nocodazole, reference compound] . Output IC50: 0.9

Input CC(C)(C)N1CCC(c2cc(-c3ccc(F)cc3Cl)c3cc[n+]([O-])c(-c4c(Cl)cccc4Cl)c3n2)CC1 [compound 2] . Output IC50: 0.022

Input COc1ccc(N(C)c2nc(C)nc3ccccc23)cc1 [compound 16] . Output IC50: 0.007

Input COc1ccc(-c2ccc3c(N4CCOC[C@@H]4C)nc(N4CCOC[C@@H]4C)nc3n2)cc1CO [AZD8055, reference compound] . Output IC50: 0.002

Input CS(=O)(=O)N1CCN(c2ccc(Nc3ncc(C(N)=O)c(NC4CC4)n3)cc2)CC1 [compound 5] . Output IC50: 0.043

====

molecular target: CDK7/cyclinH/MAT1 (Homo sapiens, UniProt P50613); construct: purchased Eurofins Pharma Discovery Services (KinaseProfiler; Cerep BioPrint panel); test: kinase selectivity panel; assay type: biochemical; conditions: read-out: percentage of control activity (POC), CDK7/cyclinH/MAT1
Sequence (P50613 whole entry): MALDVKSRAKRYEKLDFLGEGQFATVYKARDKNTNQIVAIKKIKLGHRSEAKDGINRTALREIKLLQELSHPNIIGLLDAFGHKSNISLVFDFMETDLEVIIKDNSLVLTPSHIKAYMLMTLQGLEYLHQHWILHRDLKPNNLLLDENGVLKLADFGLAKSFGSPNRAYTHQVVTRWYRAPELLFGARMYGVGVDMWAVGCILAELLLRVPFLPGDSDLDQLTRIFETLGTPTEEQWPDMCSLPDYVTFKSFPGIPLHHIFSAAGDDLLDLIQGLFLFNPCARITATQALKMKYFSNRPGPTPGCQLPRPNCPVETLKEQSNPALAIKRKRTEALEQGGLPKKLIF
Sequence (P51946 whole entry partner): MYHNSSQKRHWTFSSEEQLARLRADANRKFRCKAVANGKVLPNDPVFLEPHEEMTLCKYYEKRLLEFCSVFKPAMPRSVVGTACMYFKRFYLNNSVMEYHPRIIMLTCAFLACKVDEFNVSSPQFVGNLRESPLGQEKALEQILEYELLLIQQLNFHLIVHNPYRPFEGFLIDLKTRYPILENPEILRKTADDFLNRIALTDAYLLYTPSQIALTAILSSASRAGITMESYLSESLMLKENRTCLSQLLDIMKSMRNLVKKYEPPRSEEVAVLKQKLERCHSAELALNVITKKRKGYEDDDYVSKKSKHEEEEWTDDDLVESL
Sequence (P51948 whole entry partner): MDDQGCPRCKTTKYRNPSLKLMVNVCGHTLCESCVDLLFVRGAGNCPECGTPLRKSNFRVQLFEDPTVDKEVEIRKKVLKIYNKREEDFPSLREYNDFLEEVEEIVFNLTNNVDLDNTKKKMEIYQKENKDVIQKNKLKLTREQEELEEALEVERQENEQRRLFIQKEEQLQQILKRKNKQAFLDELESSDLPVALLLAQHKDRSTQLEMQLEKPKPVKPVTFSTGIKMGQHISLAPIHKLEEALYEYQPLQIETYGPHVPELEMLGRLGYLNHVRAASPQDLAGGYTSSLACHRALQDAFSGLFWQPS
property_label: remaining activity at 10 µM (%)
Note: unit % is implicit; provide only the numeric part.

Noted remaining activity at 10 µM for Cn1cc(-c2cccc(-c3nc(C(=O)NC4C5CC6CC4CC(O)(C6)C5)c(N)nc3N)c2)cn1 (centres unmarked) [compound 4] , tested on CDK7/cyclinH/MAT1 (Homo sapiens, UniProt P50613): 95

Noted remaining activity at 10 µM for COc1c(NC(=O)c2ccc(C)c(-c3nnc4c(NCC(C)(C)C)nccn34)c2)cc(C(C)(C)C)cc1NS(C)(=O)=O [compound 7, reference compound] , tested on CDK7/cyclinH/MAT1 (Homo sapiens, UniProt P50613): 101

Noted remaining activity at 10 µM for Cc1ccc(C(=O)NCC2CC2)cc1-c1ccc2c(c1)NC(=O)C21CCCC1 [compound 3] , tested on CDK7/cyclinH/MAT1 (Homo sapiens, UniProt P50613): 104

Noted remaining activity at 10 µM for CS(=O)(=O)N1CCN(c2ccc(Nc3ncc(C(N)=O)c(NC4CC4)n3)cc2)CC1 [compound 5] , tested on CDK7/cyclinH/MAT1 (Homo sapiens, UniProt P50613): 71

Noted remaining activity at 10 µM for CC(C)(C)N1CCC(c2cc(-c3ccc(F)cc3Cl)c3cc[n+]([O-])c(-c4c(Cl)cccc4Cl)c3n2)CC1 [compound 2] , tested on CDK7/cyclinH/MAT1 (Homo sapiens, UniProt P50613): 115

====

biological target: Pyk2 (Homo sapiens, UniProt Q14289); construct: purchased Eurofins Pharma Discovery Services (KinaseProfiler; Cerep BioPrint panel); test: kinase selectivity panel; format: biochemical; settings: read-out: percentage of control activity (POC), Pyk2
Sequence (Q14289 whole entry): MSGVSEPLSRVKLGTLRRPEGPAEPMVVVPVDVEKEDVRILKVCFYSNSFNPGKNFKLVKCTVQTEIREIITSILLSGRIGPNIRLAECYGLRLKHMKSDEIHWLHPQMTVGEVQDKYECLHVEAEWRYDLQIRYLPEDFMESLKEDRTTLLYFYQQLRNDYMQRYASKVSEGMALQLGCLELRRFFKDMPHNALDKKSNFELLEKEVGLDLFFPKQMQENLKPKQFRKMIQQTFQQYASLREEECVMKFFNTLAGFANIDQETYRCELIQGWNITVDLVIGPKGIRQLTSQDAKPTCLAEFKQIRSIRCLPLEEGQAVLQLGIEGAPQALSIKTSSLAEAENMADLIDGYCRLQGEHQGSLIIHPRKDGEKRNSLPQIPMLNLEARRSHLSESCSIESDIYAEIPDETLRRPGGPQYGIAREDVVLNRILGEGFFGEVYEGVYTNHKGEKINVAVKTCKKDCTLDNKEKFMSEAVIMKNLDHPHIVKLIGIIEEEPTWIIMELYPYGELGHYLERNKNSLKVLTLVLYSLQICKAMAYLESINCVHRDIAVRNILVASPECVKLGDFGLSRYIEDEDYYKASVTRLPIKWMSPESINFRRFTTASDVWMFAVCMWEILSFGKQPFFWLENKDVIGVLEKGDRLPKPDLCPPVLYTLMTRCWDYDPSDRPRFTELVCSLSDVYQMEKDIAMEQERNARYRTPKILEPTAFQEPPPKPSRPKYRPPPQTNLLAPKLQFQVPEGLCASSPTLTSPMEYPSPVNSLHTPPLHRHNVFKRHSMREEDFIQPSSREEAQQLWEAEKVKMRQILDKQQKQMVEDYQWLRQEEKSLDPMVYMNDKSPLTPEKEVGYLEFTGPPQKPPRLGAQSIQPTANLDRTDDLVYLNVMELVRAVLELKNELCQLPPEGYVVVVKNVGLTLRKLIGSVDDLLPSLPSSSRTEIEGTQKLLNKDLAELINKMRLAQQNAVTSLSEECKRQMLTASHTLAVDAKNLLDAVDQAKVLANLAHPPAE
property_label: remaining activity at 10 µM (%)
Note: unit % is implicit; provide only the numeric part.

Noted remaining activity at 10 µM for COc1c(NC(=O)c2ccc(C)c(-c3nnc4c(NCC(C)(C)C)nccn34)c2)cc(C(C)(C)C)cc1NS(C)(=O)=O [compound 7, reference compound] , tested on Pyk2 (Homo sapiens, UniProt Q14289): 87

Noted remaining activity at 10 µM for CS(=O)(=O)N1CCN(c2ccc(Nc3ncc(C(N)=O)c(NC4CC4)n3)cc2)CC1 [compound 5] , tested on Pyk2 (Homo sapiens, UniProt Q14289): 4

Noted remaining activity at 10 µM for CC(C)(C)N1CCC(c2cc(-c3ccc(F)cc3Cl)c3cc[n+]([O-])c(-c4c(Cl)cccc4Cl)c3n2)CC1 [compound 2] , tested on Pyk2 (Homo sapiens, UniProt Q14289): 99

Noted remaining activity at 10 µM for Cn1cc(-c2cccc(-c3nc(C(=O)NC4C5CC6CC4CC(O)(C6)C5)c(N)nc3N)c2)cn1 (centres unmarked) [compound 4] , tested on Pyk2 (Homo sapiens, UniProt Q14289): 86

Noted remaining activity at 10 µM for Cc1ccc(C(=O)NCC2CC2)cc1-c1ccc2c(c1)NC(=O)C21CCCC1 [compound 3] , tested on Pyk2 (Homo sapiens, UniProt Q14289): 99

====

biological target: Fgr (Homo sapiens); construct: purchased Eurofins Pharma Discovery Services (KinaseProfiler; Cerep BioPrint panel); experiment: kinase selectivity panel; format: biochemical; conditions: read-out: percentage of control activity (POC), Fgr
Sequence (P09769 whole entry): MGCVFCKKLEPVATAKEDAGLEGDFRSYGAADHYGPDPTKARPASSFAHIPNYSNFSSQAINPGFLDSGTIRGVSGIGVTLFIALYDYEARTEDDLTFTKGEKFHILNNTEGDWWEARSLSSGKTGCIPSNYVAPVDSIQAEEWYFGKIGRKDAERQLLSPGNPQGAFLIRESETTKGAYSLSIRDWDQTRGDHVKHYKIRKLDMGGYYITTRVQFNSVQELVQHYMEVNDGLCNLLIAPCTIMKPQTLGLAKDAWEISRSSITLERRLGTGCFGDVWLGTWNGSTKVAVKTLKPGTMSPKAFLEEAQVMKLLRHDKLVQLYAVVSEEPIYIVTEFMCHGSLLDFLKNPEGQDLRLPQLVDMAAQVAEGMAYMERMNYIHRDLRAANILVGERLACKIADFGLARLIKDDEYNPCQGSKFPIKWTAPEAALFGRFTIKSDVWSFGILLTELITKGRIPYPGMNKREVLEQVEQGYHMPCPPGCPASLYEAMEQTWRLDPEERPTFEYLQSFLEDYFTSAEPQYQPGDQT
property_label: remaining activity at 10 µM (%)
Note: unit % is implicit; provide only the numeric part.

Input CC(C)(C)N1CCC(c2cc(-c3ccc(F)cc3Cl)c3cc[n+]([O-])c(-c4c(Cl)cccc4Cl)c3n2)CC1 . Output remaining activity at 10 µM: 99

Input Cc1ccc(C(=O)NCC2CC2)cc1-c1ccc2c(c1)NC(=O)C21CCCC1 . Output remaining activity at 10 µM: 93

Input CS(=O)(=O)N1CCN(c2ccc(Nc3ncc(C(N)=O)c(NC4CC4)n3)cc2)CC1 . Output remaining activity at 10 µM: 5

Input Cn1cc(-c2cccc(-c3nc(C(=O)NC4C5CC6CC4CC(O)(C6)C5)c(N)nc3N)c2)cn1 (centres unmarked) . Output remaining activity at 10 µM: 67

Input COc1c(NC(=O)c2ccc(C)c(-c3nnc4c(NCC(C)(C)C)nccn34)c2)cc(C(C)(C)C)cc1NS(C)(=O)=O [compound 7, reference compound] . Output remaining activity at 10 µM: 98
